# system-name: BLM642-1290 K1125A (human, UniProt P54132 642-1290, K1125A)
# Sequence (P54132 642-1290 K1125A): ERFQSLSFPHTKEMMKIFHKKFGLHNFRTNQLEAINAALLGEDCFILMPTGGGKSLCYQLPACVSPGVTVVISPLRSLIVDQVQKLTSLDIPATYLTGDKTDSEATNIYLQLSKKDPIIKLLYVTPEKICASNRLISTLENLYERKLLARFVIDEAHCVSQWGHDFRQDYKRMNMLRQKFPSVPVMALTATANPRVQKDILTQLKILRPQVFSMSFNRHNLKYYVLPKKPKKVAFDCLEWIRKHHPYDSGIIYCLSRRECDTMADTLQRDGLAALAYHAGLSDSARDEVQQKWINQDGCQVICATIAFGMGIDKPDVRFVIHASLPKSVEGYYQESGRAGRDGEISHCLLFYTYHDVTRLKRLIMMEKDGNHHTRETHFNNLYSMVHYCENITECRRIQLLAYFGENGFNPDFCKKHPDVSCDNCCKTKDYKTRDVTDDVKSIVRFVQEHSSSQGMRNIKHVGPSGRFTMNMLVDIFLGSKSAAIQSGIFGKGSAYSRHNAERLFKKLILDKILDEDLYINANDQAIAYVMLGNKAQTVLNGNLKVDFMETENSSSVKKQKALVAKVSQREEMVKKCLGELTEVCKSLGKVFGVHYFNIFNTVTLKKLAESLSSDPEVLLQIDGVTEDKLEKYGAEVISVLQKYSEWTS
# experimental-protocol: fluorescence anisotropy; 1 mM MgCl2, no ATP listed; 25 mM Tris-HCl pH 7.5 (last digit split in text), 100 mM NaCl, 1 mM MgCl2, 3 mM DTT, 5 nM DNA, 25 C, 5 min equilibration; Hill fit
# condition-context: protein: recombinant; label: 3' fluorescein
measured-property: pKd
Numbers only, as −log10 of the molar value.

For the binder GCCTCGCTGCCGTCGCCA (ssDNA) [F18 ssDNA (18 nt)] , give its measured pKd value. 7.67
